- Tested on: MS2 coat protein
- assay-info: apparent Kd, MS2 coat protein; higher = weaker binding; RNA-MaP array; tryptophan 2.4 mM where present
- reported-conditions: ligand present: tryptophan; designed as: ON switch for tryptophan
Reported apparent Kd values for a set of sequences
quantity-kind: apparent Kd (µM)

[[record]]
sequence_entry = "AACACAUGAGGAUCACCCAUGUUCUCGUGUCGAGGACCGGUACGGCCGCCACUCGGUUCUCGCGAGGAUGGUCAAAGACUAUCCA"
readout_number = 0.042

[[record]]
sequence_entry = "AGCAACAAGUCGGCCGCCACUCAAUAAACAUGAGGAUCACCCAUGUAAAUAACAUGAUAAUAAUAGAGGACCGGGACAGUUGCAU"
readout_number = 0.013

[[record]]
sequence_entry = "GGUUACUCUACGGCCGCCACUGUAAAGUAAAUAUUAAUGUACAUGACAUGAGGAUCACCCAUGUACAGGACCGGGUAGUGUAACC"
readout_number = 0.0185

[[record]]
sequence_entry = "GCAUCCUAGUCGGCCGCCACUGACAUGAGGAUCACCCAUGUACAUGAGGAUCACCCAUGUUGUAACAGGACCGGGACUAGGAUGC"
readout_number = 0.0495

[[record]]
sequence_entry = "UUAUAUACUACGGCCGCCACUGAACAUGAGGAUCACCCAUGUAAUGUUCAGACGUCUUUAGACGACAGGACCGGGUAGAAUUAAA"
readout_number = 0.109

[[record]]
sequence_entry = "GGUUACUCUACGGCCGCCACUGAUUAUUUAUAGUCCUGUACAUAAACAUGAGGAUCACCCAUGUACAGGACCGGGUAGUGUAACC"
readout_number = 0.0356

[[record]]
sequence_entry = "UAAACUACACAUGAGGAUCACCCAUGUGGCCGAGGACCGGUACGGCCGCCACUCGUGUGUUAAUAAAAGAACUGCAAGGUUCUGU"
readout_number = 0.084

